This collection of values is drawn from PubChem BioAssay AID504470.

Assay: TOR pathway RPL19A-GFP reporter modulators – cell-based, KU SAR set 2, kMESF flow cytometry, multiplex, SAR follow-up (AID 504470)
Conditions: S. cerevisiae RPL19A-GFP strain, flow cytometry fluorescence, 3 h; at 100 µM (top of the series)
Calls of active or inactive are those of the source.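 The calls were made as follows: active = EC50, the half-effect concentration on GFP expression, at most 33 µM; inactive = the rest.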
READOUT LABEL: GFP fluorescence (kMESF)

1) CNc1nc(N)c([N+](=O)[O-])c(Nc2cccc(Br)c2)n1; 24% (inactive)
2) CCNc1nc(N)c([N+](=O)[O-])c(Nc2cccc(Cl)c2)n1; 18.9% (inactive)
3) CNc1nc(N)c([N+](=O)[O-])c(Nc2cccc(Oc3ccccc3)c2)n1; 23% (inactive)
4) CNc1nc(N)c([N+](=O)[O-])c(Nc2ccccc2Br)n1; 23.4% (inactive)
5) CNc1nc(N)c([N+](=O)[O-])c(Nc2ccccc2F)n1; 24.8% (inactive)
6) CNc1nc(N)c([N+](=O)[O-])c(Nc2cccc(OC)c2)n1; 22.9% (inactive)
7) CNc1nc(NC)c([N+](=O)[O-])c(Nc2cccc(Cl)c2)n1; 23.3% (inactive)
8) CNc1nc(NC2CCCCC2)c([N+](=O)[O-])c(N2CCOCC2)n1; 21.9% (inactive)
